Overview of reported CC50 across a group of compounds:
- System: TZM-bl cells
- protocol_text: CytoTox-Glo cytotoxicity assay
- Format: cell-based
- cond: one day, average of two independent tests
measured_parameter: CC50 (µM)

smiles_str: N#Cc1ccc(Nc2nc(Oc3c(F)cc(Br)cc3F)ccc2N)cc1
measured_parameter: CC50
reported_relation: >
recorded_result: 9.59

smiles_str: N#Cc1ccc(Nc2nc(Oc3c(F)cc(/C=C/C(N)=O)cc3F)ccc2N)cc1
measured_parameter: CC50
reported_relation: >
recorded_result: 24.6

smiles_str: N#C/C=C/c1cc(Cl)c(Oc2ccc(N)c(Nc3ccc(C#N)cc3)n2)c(Cl)c1
measured_parameter: CC50
reported_relation: =
recorded_result: 10.7

smiles_str: CC(=O)CCc1cc(F)c(Oc2ccc(N)c(Nc3ccc(C#N)cc3)n2)c(F)c1
measured_parameter: CC50
reported_relation: >
recorded_result: 9.8

smiles_str: COc1cc(/C=C/C#N)cc(Br)c1Oc1ccc(N)c(Nc2ccc(C#N)cc2)n1
measured_parameter: CC50
reported_relation: =
recorded_result: 21

smiles_str: N#CCCc1cc(F)c(Oc2ccc(N)c(Nc3ccc(C#N)cc3)n2)c(F)c1
measured_parameter: CC50
reported_relation: >
recorded_result: 10.2

smiles_str: CCCOC(=O)c1cc(F)c(Oc2ccc(N)c(Nc3ccc(C#N)cc3)n2)c(F)c1
measured_parameter: CC50
reported_relation: =
recorded_result: 15.3

smiles_str: N#C/C=C/c1cc(F)c(Oc2ccc(N)c(Nc3ccc(C#N)cc3)n2)c(F)c1
measured_parameter: CC50
reported_relation: =
recorded_result: 11

smiles_str: N#Cc1ccc(Nc2nc(Oc3c(F)cc(CCCO)cc3F)ccc2N)cc1
measured_parameter: CC50
reported_relation: >
recorded_result: 25.2

smiles_str: N#C/C=C/c1cc(Br)c(Oc2ccc(N)c(Nc3ccc(C#N)cc3)n2)c(Br)c1
measured_parameter: CC50
reported_relation: =
recorded_result: 8.22

smiles_str: N#Cc1ccc(Nc2nc(Oc3c(Br)cc(C#N)cc3Br)ccc2N)cc1
measured_parameter: CC50
reported_relation: =
recorded_result: 13.2

smiles_str: N#C/C(=C\c1cc(F)c(Oc2ccc(N)c(Nc3ccc(C#N)cc3)n2)c(F)c1)C(N)=O
measured_parameter: CC50
reported_relation: =
recorded_result: 15.8

---

- protocol_text: Aqueous solubility measurement
- Format: physicochemical
- cond: pH 2.0, HPLC method, triplicate
Threshold rule: Aqueous solubility pH 2.0 greater than or equal to 0.8 μg/mL is 1; below that, 0.

smiles_str: N#C/C=C/c1cc(Br)c(Oc2ccc(N)c(Nc3ccc(C#N)cc3)n2)c(Br)c1
assigned_label: 0

smiles_str: N#C/C=C/c1cc(F)c(Oc2ccc(N)c(Nc3ccc(C#N)cc3)n2)c(F)c1
assigned_label: 1

smiles_str: N#Cc1ccc(Nc2nc(Oc3c(F)cccc3F)ccc2N)cc1
assigned_label: 1

---

EC50 values, listed per item
- Tested on: HIV-1 RTMDR (RT L74V, M41L, V106A, T215Y)
- Format: cell-based
- cond: read-out: EC50 RTMDR; TZM-bl cells
measured_parameter: EC50 (nM)

smiles_str: N#Cc1ccc(Nc2nc(Oc3c(Br)cc(C#N)cc3Br)ccc2N)cc1
unit: nM
recorded_result: 2.47
--
smiles_str: N#Cc1ccc(Nc2nc(Oc3c(F)cccc3F)ccc2N)cc1
unit: nM
recorded_result: 3.55
--
smiles_str: COc1cc(/C=C/C#N)cc(Br)c1Oc1ccc(N)c(Nc2ccc(C#N)cc2)n1
unit: nM
recorded_result: 3.46
--
smiles_str: N#C/C=C/c1cc(Br)c(Oc2ccc(N)c(Nc3ccc(C#N)cc3)n2)c(Br)c1
unit: nM
recorded_result: 0.74
--
smiles_str: N#C/C=C/c1cc(F)c(Oc2ccc(N)c(Nc3ccc(C#N)cc3)n2)c(F)c1
unit: nM
recorded_result: 34.7

---

- Tested on: TZM-bl cells
- protocol_text: CytoTox-Glo cytotoxicity assay
- Assay type: cell-based
- cond: one day, average of two independent tests
# maps each entry to its CC50

smiles_str: N#Cc1ccc(Nc2nc(Oc3c(F)cc(C#N)cc3F)ccc2N)cc1
target_or_test_system: TZM-bl cells
CC50: > 9.39 µM
--
smiles_str: N#Cc1ccc(Nc2nc(Oc3c(F)cc(C=NO)cc3F)ccc2N)cc1
target_or_test_system: TZM-bl cells
CC50: > 26.2 µM
--
smiles_str: N#Cc1ccc(Nc2nc(Oc3c(F)cc(CO)cc3F)ccc2N)cc1
target_or_test_system: TZM-bl cells
CC50: > 27.2 µM
--
smiles_str: N#Cc1ccc(Nc2nc(Oc3c(F)cccc3F)ccc2N)cc1
target_or_test_system: TZM-bl cells
CC50: 19.2 µM
--
smiles_str: COc1cc(/C=C/C#N)ccc1Oc1ccc(N)c(Nc2ccc(C#N)cc2)n1
target_or_test_system: TZM-bl cells
CC50: > 20.6 µM

---

- protocol_text: Log P measurement
- Format: physicochemical
- cond: measured at pH7.4 by HPLC method, triplicate

smiles_str: N#C/C=C/c1cc(Cl)c(Oc2ccc(N)c(Nc3ccc(C#N)cc3)n2)c(Cl)c1
log P: >5

smiles_str: N#C/C=C/c1cc(Br)c(Oc2ccc(N)c(Nc3ccc(C#N)cc3)n2)c(Br)c1
log P: 3.55

smiles_str: N#Cc1ccc(Nc2nc(Oc3c(Br)cc(C#N)cc3Br)ccc2N)cc1
log P: 3.30

smiles_str: N#C/C=C/c1cc(F)c(Oc2ccc(N)c(Nc3ccc(C#N)cc3)n2)c(F)c1
log P: 3.48

smiles_str: COc1cc(/C=C/C#N)cc(Br)c1Oc1ccc(N)c(Nc2ccc(C#N)cc2)n1
log P: 3.31

smiles_str: N#Cc1ccc(Nc2nc(Oc3c(F)cccc3F)ccc2N)cc1
log P: >5

---

- protocol_text: CytoTox-Glo cytotoxicity assay
- Assay type: cell-based
- cond: human, TZM-bl cells

molecule: Cc1cc(/C=C/C#N)cc(C)c1Nc1ccnc(Nc2ccc(C#N)cc2)n1 [1b, rilpivirine, reference compound]
CC50 at 1 day, µM: 19.4

---

- protocol_text: Aqueous solubility measurement
- Assay type: physicochemical
- cond: pH 7.4, HPLC method, triplicate
# Aqueous solubility pH 7.4 annotations
measured_parameter: Aqueous solubility pH 7.4 (μg/mL)

compound: N#C/C=C/c1cc(F)c(Oc2ccc(N)c(Nc3ccc(C#N)cc3)n2)c(F)c1 [6g]
measured_parameter: Aqueous solubility pH 7.4
unit: μg/mL
recorded_result: 0.72

compound: N#C/C=C/c1cc(Br)c(Oc2ccc(N)c(Nc3ccc(C#N)cc3)n2)c(Br)c1 [8b]
measured_parameter: Aqueous solubility pH 7.4
unit: μg/mL
recorded_result: 0.62

compound: N#C/C=C/c1cc(Cl)c(Oc2ccc(N)c(Nc3ccc(C#N)cc3)n2)c(Cl)c1 [8d]
measured_parameter: Aqueous solubility pH 7.4
unit: μg/mL
recorded_result: 0.70

compound: COc1cc(/C=C/C#N)cc(Br)c1Oc1ccc(N)c(Nc2ccc(C#N)cc2)n1 [8c]
measured_parameter: Aqueous solubility pH 7.4
unit: μg/mL
recorded_result: 0.50

compound: N#Cc1ccc(Nc2nc(Oc3c(F)cccc3F)ccc2N)cc1 [6a]
measured_parameter: Aqueous solubility pH 7.4
unit: μg/mL
recorded_result: 1.58

compound: N#Cc1ccc(Nc2nc(Oc3c(Br)cc(C#N)cc3Br)ccc2N)cc1 [8a]
measured_parameter: Aqueous solubility pH 7.4
unit: μg/mL
recorded_result: 0.72

---

- Test system: HIV-1 A17 (K103N and Y181C)
- Assay type: cell-based
- cond: MT-2 cells; versus IIIB (wt)
measured_parameter: Resistance fold change A17

smiles_str: COc1cc(/C=C/C#N)cc(Br)c1Oc1ccc(N)c(Nc2ccc(C#N)cc2)n1
reported_relation: =
recorded_result: 18.6

smiles_str: N#C/C=C/c1cc(F)c(Oc2ccc(N)c(Nc3ccc(C#N)cc3)n2)c(F)c1
reported_relation: >
recorded_result: 450

smiles_str: N#Cc1ccc(Nc2nc(Oc3c(Br)cc(C#N)cc3Br)ccc2N)cc1
reported_relation: =
recorded_result: 30.8

smiles_str: N#C/C=C/c1cc(Br)c(Oc2ccc(N)c(Nc3ccc(C#N)cc3)n2)c(Br)c1
reported_relation: =
recorded_result: 65.7

---

- protocol_text: Microsomal stability assay
- Type: in vitro ADME
- cond: 1 μM compound, 0.1 mg/mL human liver microsomes, 37 °C
Rule: HLM t1/2 under 40 min gives no (0), otherwise yes (1).

compound: N#C/C=C/c1cc(Br)c(Oc2ccc(N)c(Nc3ccc(C#N)cc3)n2)c(Br)c1 [8b]
assigned_label: no (0)

compound: N#Cc1ccc(Nc2nc(Oc3c(F)cccc3F)ccc2N)cc1 [6a]
assigned_label: yes (1)

compound: N#Cc1ccc(Nc2nc(Oc3c(Br)cc(C#N)cc3Br)ccc2N)cc1 [8a]
assigned_label: yes (1)

compound: N#C/C=C/c1cc(F)c(Oc2ccc(N)c(Nc3ccc(C#N)cc3)n2)c(F)c1 [6g]
assigned_label: yes (1)
